This listing pairs compounds with measured cell viability.
Test system: Caco-2
PROTOCOL_TEXT: cell viability relative to DMSO; higher = less toxic
EXPERIMENTAL_SETUP: 72 h; 10000 nM

COMPOUND	READOUT_UNIT	cell viability
Cc1cccc(-c2[nH]c(CNc3ccccc3F)nc2-c2ccc3ncnn3c2)n1 [EW-7197]	%	99.4
Cc1cc(=O)[nH]c(=S)[nH]1 [methylthiouracil]	%	94.6
CC(=O)N(CC(O)CN(C(C)=O)c1c(I)c(C(=O)NCC(O)CO)c(I)c(C(=O)NCC(O)CO)c1I)c1c(I)c(C(=O)NCC(O)CO)c(I)c(C(=O)NCC(O)CO)c1I (stereo not drawn) [iodixanol]	%	102
C[C@@H]1CN(Cc2ccc(F)cc2)[C@@H](C)CN1C(=O)c1cc2c(C(=O)C(=O)N(C)C)cn(C)c2cc1Cl [talmapimod]	%	91.8
COC(=O)c1c(C)[nH]c(C)c1C(=O)c1ccccc1Cc1ccccc1	%	84.8
CCC(C)(CN(C)C)OC(=O)c1ccccc1 (stereo not drawn) [amyleine]	%	92.7
Nc1c(CC(=O)O)cccc1C(=O)c1ccc(Br)cc1 [bromfenac]	%	101
CC(=O)[C@]1(O)Cc2c(O)c3c(c(O)c2[C@@H](O[C@H]2C[C@H](N)[C@H](O)[C@H](C)O2)C1)C(=O)c1ccccc1C3=O [idarubicin]	%	17.4

Values compiled from the supplement of paper PMC13380429.
